target: Tubulin alpha 4a (Ovis aries); test: Inhibition of Ovis aries (sheep) brain tubulin polymerization assessed as microtubule assembly after 15 min by measuring turbidity based spectroscopic analysis
Sequence (C5ISA2 1-448): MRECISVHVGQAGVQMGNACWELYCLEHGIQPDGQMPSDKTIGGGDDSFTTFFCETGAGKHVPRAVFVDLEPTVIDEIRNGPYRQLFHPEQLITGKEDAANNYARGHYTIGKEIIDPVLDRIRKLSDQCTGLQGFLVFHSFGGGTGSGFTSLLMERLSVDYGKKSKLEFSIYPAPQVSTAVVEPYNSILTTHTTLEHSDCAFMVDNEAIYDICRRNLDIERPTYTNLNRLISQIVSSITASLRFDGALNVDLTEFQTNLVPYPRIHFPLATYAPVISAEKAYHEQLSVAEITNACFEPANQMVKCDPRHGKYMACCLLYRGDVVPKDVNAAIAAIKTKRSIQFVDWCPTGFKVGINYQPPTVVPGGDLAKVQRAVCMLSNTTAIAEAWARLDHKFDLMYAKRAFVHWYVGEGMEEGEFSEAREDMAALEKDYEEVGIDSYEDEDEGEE
pIC50: −log10 of the molar value.
readout-kind: pIC50

molecule	pIC50
O=C(/C=C/c1ccc(Cl)cc1)c1cc(Cl)ccc1O	4.69
O=C(/C=C/c1cccc(Cl)c1)c1cc(Cl)ccc1O	4.71
COc1cc(/C=C/C(=O)CC(=O)/C=C/c2ccc(O)c(OC)c2)ccc1O	4.58

[a] O=C(/C=C/c1ccccc1Cl)c1cc(Cl)ccc1O
[b] O=C(/C=C/c1ccccc1)c1ccccc1O [2'-HYDROXYCHALCONE]
Query block: // which entry has the larger pIC50 value, a or b ? State your choice using its label.
Result block: a
(a: 4.67, b: 4.31)

====

biological target: Tubulin alpha 4a (Ovis aries); experiment: Inhibition of Ovis aries (sheep) brain tubulin polymerization assessed as microtubule assembly after 30 min by CD spectra analysis
readout-kind: pIC50
Conceptually, pIC50 converts a concentration in mol/L into minus its log10.

Query block: Could you share what pIC50 was measured for O=C(/C=C/c1cccc(Cl)c1)c1cc(Cl)ccc1O , tested on Tubulin alpha 4a (Ovis aries)?
Result block: 4.71

====

tested on: SK-N-MC; assay: Cytotoxicity against Homo sapiens (human) SK-N-MC cells after 72 hr by MTT assay; format: functional, cell-based
Recorded IC50 for the following compounds
Answer format: numeric, µM implied, no suffix.

compound	unit-string	IC50
COc1cc(/C=C/C(=O)CC(=O)/C=C/c2ccc(O)c(OC)c2)ccc1O [CURCUMIN]	µM	57.4
O=C(/C=C/c1ccc(Cl)cc1Cl)c1cc(Cl)ccc1O	µM	69.8
O=C(/C=C/c1ccccc1)c1ccccc1O [2'-HYDROXYCHALCONE]	µM	61.2
O=C(/C=C/c1ccccc1Cl)c1cc(Cl)ccc1O	µM	51.3
O=C(/C=C/c1ccc(Cl)cc1)c1cc(Cl)ccc1O	µM	45.8

Query block: Entry O=C(/C=C/c1cccc(Cl)c1)c1cc(Cl)ccc1O has what IC50?
Result block: 47.8
